Test: Pharmacokinetic experiment, single intragastric administration, plasma by HPLC-UV
Format: in vivo, SD rats
Conditions: Sprague-Dawley, rat, plasma, po, 150 mg/kg, PIP or ILE 150 mg kg^−1 oral together with CUR 200 mg kg^−1; read-out: Cmax
Overview of recorded Cmax for various compounds
Please respond with the number in ng/mL and leave the unit unwritten.

{"Compound": "O=C(/C=C/C=C/c1ccc2c(c1)OCO2)N1CCCCC1 [PIP, Piperine, reference compound]", "Cmax [ng/mL]": 4200}

Could you now look at the following compound, please?
Cmax recorded for this compound, O=C(/C=C/c1ccc2c(c1)OCO2)N1CCCCC1 [ILE, Ilepcimide, reference compound] , is 5500

* * *

Assay: Pharmacokinetic experiment, single intragastric administration, plasma by HPLC-UV
Format: in vivo, SD rats
Conditions: SD (Sprague-Dawley), rat, plasma, po, 200 mg/kg, Group B: CUR 200 mg kg^−1 and PIP 150 mg kg^−1 oral; read-out: T1/2 of DHC
Test readout: half-life
Your reply should be a number followed by the unit it is expressed in.

For this molecule ( COc1cc(/C=C/C(=O)CC(=O)CCc2ccc(O)c(OC)c2)ccc1O [DHC, Dihydrocurcumin] ), measured half-life is 25.4 min

* * *

Assay: Pharmacokinetic experiment, single intragastric administration, plasma by HPLC-UV
Assay type: in vivo, SD rats
Conditions: SD, rat, plasma, po, plasma, Group B (CUR 200 mg kg^−1 and PIP 150 mg kg^−1 oral), 330 min; read-out: Mean concentrations ±sd, DHC
Test readout: concentration at 330 min (ng/mL)
# unit: ng/mL | format: bare number

concentration at 330 min in this record for COc1cc(/C=C/C(=O)CC(=O)CCc2ccc(O)c(OC)c2)ccc1O [DHC, Dihydrocurcumin] : 150

* * *

Assay: Pharmacokinetic experiment, single intragastric administration, plasma by HPLC-UV
Type: in vivo, SD rats
Conditions: SD (Sprague-Dawley), rat, plasma, po, plasma, Group B (CUR 200 mg kg^−1 and PIP 150 mg kg^−1 oral), 40 min; read-out: Mean concentrations ±sd, DHC
Test readout: concentration at 40 min (ng/mL)
The response must be a number in ng/mL with no trailing unit.

So for COc1cc(/C=C/C(=O)CC(=O)CCc2ccc(O)c(OC)c2)ccc1O [DHC, Dihydrocurcumin] , the logged concentration at 40 min turned out to be 4000

* * *

Assay: Pharmacokinetic experiment, single intragastric administration, plasma by HPLC-UV
Format: in vivo, SD rats
Conditions: SD (Sprague-Dawley), rat, plasma, po, 200 mg/kg, Group A: CUR 200 mg kg^−1 oral alone; read-out: Cmax of DHC
Test readout: Cmax (ng/mL)
The response must be a number in ng/mL with no trailing unit.

Measured Cmax of COc1cc(/C=C/C(=O)CC(=O)CCc2ccc(O)c(OC)c2)ccc1O [DHC, Dihydrocurcumin] : 6100

* * *

Assay: Pharmacokinetic experiment, single intragastric administration, plasma by HPLC-UV
Format: in vivo, SD rats
Details: SD (Sprague-Dawley), rat, plasma, po, Mean concentrations ±sd, ILE, plasma, Group C (CUR 200 mg kg^−1 and ILE 150 mg kg^−1 oral), 40 min
Test readout: concentration at 40 min
Give me the value, and tack the unit on after it.

Entry under test: O=C(/C=C/c1ccc2c(c1)OCO2)N1CCCCC1 [ILE, Ilepcimide, reference compound] . Its concentration at 40 min was 1600 ng/mL

* * *

Assay: Pharmacokinetic experiment, single intragastric administration, plasma by HPLC-UV
Type: in vivo, SD rats
Conditions: SD, rat, plasma, po, plasma, Group A (CUR 200 mg kg^−1 oral alone), 20 min; read-out: Mean concentrations ±sd, DHC
Test readout: concentration at 20 min (ng/mL)
The reply should contain only the number, in ng/mL.

Measured concentration at 20 min, COc1cc(/C=C/C(=O)CC(=O)CCc2ccc(O)c(OC)c2)ccc1O [DHC, Dihydrocurcumin] : 6100

* * *

Experiment: Pharmacokinetic experiment, single intragastric administration, plasma by HPLC-UV
Assay type: in vivo, SD rats
Conditions: SD, rat, plasma, po, plasma, Group B (CUR 200 mg kg^−1 and PIP 150 mg kg^−1 oral), 330 min; read-out: Mean concentrations ±sd, PIP
Test readout: concentration at 330 min (ng/mL)
Numeric only. Scale: ng/mL

Summary for this compound, O=C(/C=C/C=C/c1ccc2c(c1)OCO2)N1CCCCC1 [PIP, Piperine, reference compound] : concentration at 330 min is 1400

* * *

Assay: Pharmacokinetic experiment, single intragastric administration, plasma by HPLC-UV
Format: in vivo, SD rats
Conditions: SD (Sprague-Dawley), rat, plasma, po, plasma, Group B (CUR 200 mg kg^−1 and PIP 150 mg kg^−1 oral), 150 min; read-out: Mean concentrations ±sd, PIP
Test readout: concentration at 150 min (ng/mL)
Write down the numeric answer in ng/mL and omit the unit.

get_value(item= O=C(/C=C/C=C/c1ccc2c(c1)OCO2)N1CCCCC1 [PIP, Piperine, reference compound] , readout=concentration at 150 min) returns 2400

* * *

Test: Pharmacokinetic experiment, single intragastric administration, plasma by HPLC-UV
Format: in vivo, SD rats
Details: SD, rat, plasma, po, plasma, Group C (CUR 200 mg kg^−1 and ILE 150 mg kg^−1 oral), 20 min; read-out: Mean concentrations ±sd, DHC
Test readout: concentration at 20 min (ng/mL)
Numbers only; they are read as ng/mL.

response.value for COc1cc(/C=C/C(=O)CC(=O)CCc2ccc(O)c(OC)c2)ccc1O [DHC, Dihydrocurcumin] (field: concentration at 20 min) = 9200

* * *

Experiment: Pharmacokinetic experiment, single intragastric administration, plasma by HPLC-UV
Format: in vivo, SD rats
Conditions: SD (Sprague-Dawley), rat, plasma, po, Mean concentrations ±sd, ILE, plasma, Group C (CUR 200 mg kg^−1 and ILE 150 mg kg^−1 oral), 60 min
Test readout: concentration at 60 min

Short answer for O=C(/C=C/c1ccc2c(c1)OCO2)N1CCCCC1 [ILE, Ilepcimide, reference compound] : concentration at 60 min was 2000 ng/mL

* * *

Assay: Pharmacokinetic experiment, single intragastric administration, plasma by HPLC-UV
Format: in vivo, SD rats
Conditions: SD (Sprague-Dawley), rat, plasma, po, plasma, Group A (CUR 200 mg kg^−1 oral alone), 150 min; read-out: Mean concentrations ±sd, DHC
Test readout: concentration at 150 min (ng/mL)
Numeric only. Scale: ng/mL

Reported concentration at 150 min for COc1cc(/C=C/C(=O)CC(=O)CCc2ccc(O)c(OC)c2)ccc1O [DHC, Dihydrocurcumin] was 1200

* * *

Test: Pharmacokinetic experiment, single intragastric administration, plasma by HPLC-UV
Assay type: in vivo, SD rats
Conditions: SD (Sprague-Dawley), rat, plasma, po, 200 mg/kg, Group A: CUR 200 mg kg^−1 oral alone; read-out: T1/2 of DHC
Test readout: half-life (min)
Give the quantity in min, number only.

// field: half-life; key: COc1cc(/C=C/C(=O)CC(=O)CCc2ccc(O)c(OC)c2)ccc1O [DHC, Dihydrocurcumin] ; value = 24.8

* * *

Experiment: Pharmacokinetic experiment, single intragastric administration, plasma by HPLC-UV
Format: in vivo, SD rats
Conditions: SD (Sprague-Dawley), rat, plasma, po, 200 mg/kg, Group A: CUR 200 mg kg^−1 oral alone; read-out: AUC(0-tn) of DHC (converted)
Test readout: AUC (ng·h/mL)
# unit: ng·h/mL | format: bare number

For COc1cc(/C=C/C(=O)CC(=O)CCc2ccc(O)c(OC)c2)ccc1O [DHC, Dihydrocurcumin] the compound record lists AUC as 7610

* * *

Test: Pharmacokinetic experiment, single intragastric administration, plasma by HPLC-UV
Type: in vivo, SD rats
Conditions: SD (Sprague-Dawley), rat, plasma, po, 200 mg/kg, Group C: CUR 200 mg kg^−1 and ILE 150 mg kg^−1 oral; read-out: T1/2 of DHC
Test readout: half-life (h)
Report only the number, with the unit h understood.

# half-life (compound: COc1cc(/C=C/C(=O)CC(=O)CCc2ccc(O)c(OC)c2)ccc1O [DHC, Dihydrocurcumin] ) is 1.91

* * *

Experiment: Pharmacokinetic experiment, single intragastric administration, plasma by HPLC-UV
Type: in vivo, SD rats
Conditions: SD, rat, plasma, po, plasma, Group B (CUR 200 mg kg^−1 and PIP 150 mg kg^−1 oral), 20 min; read-out: Mean concentrations ±sd, PIP
Test readout: concentration at 20 min (ng/mL)
Give the quantity in ng/mL, number only.

Measured concentration at 20 min of O=C(/C=C/C=C/c1ccc2c(c1)OCO2)N1CCCCC1 [PIP, Piperine, reference compound] : 1400

* * *

Assay: Pharmacokinetic experiment, single intragastric administration, plasma by HPLC-UV
Type: in vivo, SD rats
Conditions: SD (Sprague-Dawley), rat, plasma, po, plasma, Group A (CUR 200 mg kg^−1 oral alone), 60 min; read-out: Mean concentrations ±sd, DHC
Test readout: concentration at 60 min (ng/mL)
State the answer as a number, implicitly in ng/mL.

For record COc1cc(/C=C/C(=O)CC(=O)CCc2ccc(O)c(OC)c2)ccc1O [DHC, Dihydrocurcumin] the listed concentration at 60 min is 1800
